# SYSTEM_TESTED: Acetylcholinesterase (Homo sapiens)
# Sequence (P22303 whole entry): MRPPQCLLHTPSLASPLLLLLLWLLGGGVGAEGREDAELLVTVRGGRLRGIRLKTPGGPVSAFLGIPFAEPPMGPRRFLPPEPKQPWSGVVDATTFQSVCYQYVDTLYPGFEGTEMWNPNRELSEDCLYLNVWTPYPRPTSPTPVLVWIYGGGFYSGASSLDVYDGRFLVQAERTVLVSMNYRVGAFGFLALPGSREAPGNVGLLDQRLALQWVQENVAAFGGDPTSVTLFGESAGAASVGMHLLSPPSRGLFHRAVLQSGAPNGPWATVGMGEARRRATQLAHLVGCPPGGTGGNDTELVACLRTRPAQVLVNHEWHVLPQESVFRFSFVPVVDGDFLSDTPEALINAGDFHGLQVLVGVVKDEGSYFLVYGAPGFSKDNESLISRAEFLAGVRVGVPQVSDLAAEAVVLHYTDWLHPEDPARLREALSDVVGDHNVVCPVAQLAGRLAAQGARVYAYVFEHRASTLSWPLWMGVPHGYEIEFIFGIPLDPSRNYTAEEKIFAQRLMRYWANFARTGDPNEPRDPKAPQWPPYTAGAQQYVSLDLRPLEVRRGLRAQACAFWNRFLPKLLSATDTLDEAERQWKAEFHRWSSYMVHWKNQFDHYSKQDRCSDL
# TEST_PROTOCOL: Inhibition of AChE in human erythrocytes using acetylthiocholine iodide as substrate preincubated with enzyme for 10 mins prior to substrate challenge measured after 15 mins by Ellman's method
ENDPOINT: pIC50
Please note pIC50 is a logarithmic value: minus log10 of concentration in mol/L. Answer with that number alone.

# INPUT_SMILES, pIC50
data = [
    ("O=C(NCC1CCN(Cc2ccccc2)CC1)c1c(O)c2cc(O)c(O)cc2[nH]c1=O", 6.01),
]

Please turn your attention to the following entry.
INPUT: Read the entry COc1cc2[nH]c(=O)c(C(=O)NCC3CCN(Cc4ccccc4)CC3)c(O)c2cc1OC and write its reported pIC50.
OUTPUT: 6.64
